# runDescription: Displacement of UDP-fluorescein from Mycobacterium tuberculosis UDP-galactopyranose mutase by fluorescence polarization assay
Entries and their pKd
// scale note: pKd = -log10(conc_M); give the bare number

# inputSmiles, pKd
rows = [
    ("COc1ccc(C#C/C=C2\\Cn3cc(I)c4cccc(c43)C(=O)O2)cc1", 4.14),
]

Okay, now this compound:
Exercise: GET /values?readout=pKd&item= O=C1O/C(=C/I)Cn2cc(I)c3cccc1c32
Solution: 3.86
